Each entry below carries its recorded SPOT peptide array binding signal intensity.
Target: AgBem1-D1
Experiment: SPOT peptide array binding signal intensity (averaged, normalized) (arbitrary units (background-subtracted, floor 0; scale differs between SH3 domains)); higher = stronger binding of the SH3 domain to the peptide
observable: SPOT peptide array binding signal intensity

[
  {
    "binder": "LFMKGTPEFPKSGFS",
    "valueRelationSign": "=",
    "reportedMeasurement": 224
  },
  {
    "binder": "TKHKAPPPPPPTAET",
    "valueRelationSign": "≤",
    "reportedMeasurement": 0
  },
  {
    "binder": "RRLRDKYKLPIVDAD",
    "valueRelationSign": "=",
    "reportedMeasurement": 52
  },
  {
    "binder": "QDKEGIPPDQQRLIF",
    "valueRelationSign": "≤",
    "reportedMeasurement": 0
  }
]
